settings: 1 h, pH 7.4
measure: Percent parent compound remaining at 60 minutes in liver microsomes, Human (%)
Value expressed in %; do not type the unit.

Task: Respond only with Percent parent compound remaining at 60 minutes in liver microsomes, Human recorded for CC(C)Oc1ccc(-n2cnc3ccc(-c4ccc(C(C)(C)O)cc4)cc32)cc1 [Example A17]
Output: 69

* * *

tested on: LASV-p; assay: organism not typed; assay type: cell-based, Lassa (LASV); conditions: Vero, 24 h, read-out: LASV-p EC50 (nM)
Recorded EC50, one value per entry.
Value expressed in nM; do not type the unit.

The examples below pair each entry with its known result.
[[record]]
compound = "CC(C)Oc1ccc(-c2ccc3ncc(-c4ccc(OCC5CC5)cc4)n3c2)cc1 [Example C33]"
assayed_target = "LASV-p"
measure = "EC50"
recorded_value = 1.3

[[record]]
compound = "Cc1cc2nnn(-c3ccc(OC(C)C)cc3)c2cc1-c1ccc(OC(C)C)cc1 [Example B15]"
assayed_target = "LASV-p"
measure = "EC50"
recorded_value = 0.95

[[record]]
compound = "CC(C)Oc1ccc(-n2cnc3ccc(-c4ccc(C(C)(C)O)cc4)cc32)cc1 [Example A17]"
assayed_target = "LASV-p"
measure = "EC50"
recorded_value = 1.1

[[record]]
compound = "OC1(c2ccc(-c3ccc4ncc(-c5ccc(C6(O)CCC6)cc5)n4c3)cc2)CCC1 [Example C47]"
assayed_target = "LASV-p"
measure = "EC50"
recorded_value = 1.8


Task: Find the measured EC50 of CC(C)Oc1ccc(-n2cnc3ccc(-c4ccc(N(C)C)cc4)cc32)cc1 [Example A18] with LASV-p as test system.
Output: 1.08

Task: Find the measured EC50 of COc1cc2ncn(-c3ccc(OC(C)C)cc3)c2cc1-c1ccc(OC(C)C)cc1 [Example A31] with LASV-p as test system.
Output: 2.6

* * *

tested on: JUNV-p; assay: organism not typed; type: cell-based, Junin (JUNV); settings: Vero, 24 h, read-out: JUNV-p EC50 (nM)
Recorded EC50, one value per entry.
Value expressed in nM; do not type the unit.

The examples below pair each entry with its known result.
[[record]]
compound = "CC(C)Oc1ccc(-n2ncc3ccc(-c4ccc5[nH]ccc5c4)cc32)cc1 [Example D2]"
quantity_unit = "nM"
recorded_value = 17.8

[[record]]
compound = "CC(C)Oc1ccc(-c2cnc3ccc(-c4ccc(C5(O)COC5)cc4)cn23)cc1"
quantity_unit = "nM"
recorded_value = 14.9

[[record]]
compound = "Cc1c(-c2ccc(OC(C)C)cc2)ccc2ncc(-c3ccc(OC(C)C)cc3)n12"
quantity_unit = "nM"
recorded_value = 0.15

[[record]]
compound = "c1cc(-c2ccc3ncc(-c4ccc(OC5CC5)cc4)n3c2)ccc1OC1CC1"
quantity_unit = "nM"
recorded_value = 4.42

[[record]]
compound = "c1cc2cc(-c3ccc4ncn(-c5ccc6[nH]ccc6c5)c4c3)ccc2[nH]1"
quantity_unit = "nM"
recorded_value = 6.96


Task: Find the measured EC50 of CC(C)Oc1ccc(-n2cnc3cnc(-c4ccc(C(C)(C)O)cc4)nc32)cc1 with JUNV-p as test system.
Output: 11.9

Task: Find the measured EC50 of CC(C)Oc1ccc(-n2cnc3ccc(-c4ccc(N(C)C)cc4)cc32)cc1 with JUNV-p as test system.
Output: 1.55

Task: Find the measured EC50 of CC(=O)c1ccc(-c2ccc3ncn(-c4ccc(OC(C)C)cc4)c3c2)cc1 with JUNV-p as test system.
Output: 0.81

* * *

tested on: LASV-p; assay: organism not typed; assay type: cell-based, Lassa (LASV); conditions: Vero, 24 h, read-out: LASV-p EC50 (nM)
measure: EC50

The examples below pair each entry with its known result.
[[record]]
molecule = "CC(C)Oc1ccc(-c2ccc3ncc(-c4ccc(C(=O)O)cc4)n3c2)cc1 [Example C45]"
recorded_value = "> 25 nM"

[[record]]
molecule = "CC(C)Oc1ccc(-n2cnc3cnc(-c4ccc(C(C)(C)O)cc4)cc32)cc1 [Example B5]"
recorded_value = "> 25 nM"

[[record]]
molecule = "CC(C)Oc1ccc(-c2ccc3nc(C(N)=O)c(-c4ccc(OC(C)C)cc4)n3c2)cc1 [Example D22]"
recorded_value = "> 25 nM"


Shift focus to the following entry.
Task: Respond only with EC50 recorded for CC(C)Oc1ccc(-c2cnc3ccc(-c4ccc(OC(C)C)cc4F)cn23)cc1 [Example C23]
Output: > 25 nM

* * *

tested on: LASV-p; assay: organism not typed; type: cell-based, Lassa (LASV); conditions: Vero, 24 h, read-out: LASV-p EC50 (nM)
Friendly reminder: EC50 below 4 nM is met, at or above is not met.

Example results:
[[record]]
item_smiles = "CC(C)Oc1ccc(-c2ccc3ccn(-c4ccc(OC(C)C)cc4)c3c2)cc1"
assayed_target = "LASV-p"
classification = "not met"

[[record]]
item_smiles = "CC(=O)c1ccc(-c2cc3c(cn2)ncn3-c2ccc(OC(C)C)cc2)cc1"
assayed_target = "LASV-p"
classification = "not met"

[[record]]
item_smiles = "COc1ccc(-n2cnc3ccc(Cc4ccc(C)cc4)cc32)cc1"
assayed_target = "LASV-p"
classification = "not met"


Task: Does COc1cccc(-n2cnc3ccc(-c4ccc(C(C)(C)O)cc4)cc32)c1 have EC50 strictly under 4 nM?
Output: not met

Task: Does CC(C)Oc1ccc(-n2cnc3ccc(-c4ccc(N5CCOCC5)cc4)cc32)cc1 have EC50 strictly under 4 nM?
Output: met

Task: Does CC(C)Oc1ccc(-c2ccc3ncn(-c4ccc5[nH]ccc5c4)c3c2)cc1 have EC50 strictly under 4 nM?
Output: met

Task: Does COc1ccc(-n2cnc3ccc(-c4ccc(N5CCCCC5)cc4)cc32)cc1 have EC50 strictly under 4 nM?
Output: not met

Task: Does CC(C)Oc1ccc(-c2cnc3ccc(-c4ccc(OC(C)C)c(F)c4)cn23)cc1 have EC50 strictly under 4 nM?
Output: not met

Task: Does CC(C)Oc1ccc(-c2cnc3ccc(-c4ccc(C(N)=O)cc4)cn23)cc1 have EC50 strictly under 4 nM?
Output: not met

Task: Does CC(C)Oc1ccc(-c2cnc3ncc(-c4ccc5[nH]ccc5c4)n3c2)cc1 have EC50 strictly under 4 nM?
Output: not met

Task: Does CC(C)Oc1ccc(-c2cn3c(-c4ccc5[nH]ccc5c4)cnc3cn2)cc1 have EC50 strictly under 4 nM?
Output: not met

Task: Does COc1ccc(-n2cnc3ccc(-c4ccc(C#N)cc4)cc32)cc1 have EC50 strictly under 4 nM?
Output: not met

Task: Does COc1ccc(-n2cnc3ccc(-c4ccc(C(C)C)cc4)cc32)cc1 have EC50 strictly under 4 nM?
Output: not met

Task: Does CC(=O)c1ccc(-c2cnc3cnc(-c4ccc(OC(C)C)cc4)cn23)cc1 have EC50 strictly under 4 nM?
Output: not met

Task: Does COc1ccc(-n2cnc3ccc(-c4ccc(N5CCOCC5)cc4)cc32)cc1 have EC50 strictly under 4 nM?
Output: not met

Task: Does CC(C)Oc1ccc(-n2cnc3cnc(-c4ccc5[nH]ccc5c4)nc32)cc1 have EC50 strictly under 4 nM?
Output: not met

* * *

Recorded CC50, one value per entry.
experiment: in vitro; conditions: African green monkey

[[record]]
item_smiles = "CC(C)Oc1ccc(-c2cn3c(-c4ccc5[nH]ccc5c4)cnc3cn2)cc1"
recorded_value = "> 100 µM"


Task: Respond only with CC50 recorded for CC(C)Oc1ccc(-c2ccc3nc(C#N)c(-c4ccc(OC(C)C)cc4)n3c2)cc1
Output: > 100 µM

Task: Respond only with CC50 recorded for COc1ccc(-n2cnc3ccc(-c4ccc(C#N)cc4)cc32)cc1
Output: < 0.3 µM

* * *

conditions: guinea pig, 1 h, pH 7.4
measure: Percent parent compound remaining at 60 minutes in liver microsomes, Guinea (%)
Value expressed in %; do not type the unit.

[[record]]
compound = "CC(C)Oc1ccc(-n2cnc3ccc(-c4ccc(C(C)(C)O)cc4)cc32)cc1 [Example A17]"
recorded_value = 62

[[record]]
compound = "Cc1c(-c2ccc(OC(C)C)cc2)ccc2ncc(-c3ccc(OC(C)C)cc3)n12 [Example C51]"
recorded_value = 95


Shift focus to the following entry.
Task: Respond only with Percent parent compound remaining at 60 minutes in liver microsomes, Guinea recorded for CC(C)Oc1ccc(-c2cnc3ccc(-c4ccc(C(C)(C)O)cc4)cn23)cc1 [Example C1]
Output: 42

* * *

Recorded CC50, one value per entry.
assay: in vitro; details: African green monkey

[[record]]
item_smiles = "CC(C)Oc1ccc(-n2cnc3ccc(-c4ccc5[nH]ccc5c4)nc32)cc1"
recorded_value = "> 100 µM"


Task: Respond only with CC50 recorded for COc1ccc(-c2ccc3ncn(-c4ccc(OC)cc4)c3c2)cc1
Output: < 0.3 µM

Task: Respond only with CC50 recorded for CC(C)Oc1ccc(-c2ccc3noc(-c4ccc(OC(C)C)cc4)c3c2)cc1
Output: > 100 µM

* * *

system: LASV-p; assay: organism not typed; assay type: cell-based, Lassa (LASV); details: Vero, 24 h, read-out: LASV-p EC50 (nM)
measure: EC50

The examples below pair each entry with its known result.
[[record]]
item_smiles = "CC(C)Oc1ccc(-c2coc3ccc(-c4ccc5[nH]ccc5c4)cc23)cc1"
measure = "EC50"
recorded_value = "> 25 nM"

[[record]]
item_smiles = "COc1ccc(-n2cnc3ccc(-c4ccccc4OC)cc32)cc1"
measure = "EC50"
recorded_value = "> 25 nM"

[[record]]
item_smiles = "COc1ccc(-n2cnc3c(-c4ccc(C(C)C)cc4)cccc32)cc1"
measure = "EC50"
recorded_value = "> 100 nM"


Shift focus to the following entry.
Task: Respond only with EC50 recorded for COc1ccccc1-n1cnc2ccc(-c3ccc(C(C)(C)O)cc3)cc21
Output: > 25 nM
